- ASSAY PROCEDURE: in vitro
- SETTINGS: human, hela cells, % viability
# reported viability at 28.5 h, 10 µM; entries follow
PARAMETER MEASURED: viability at 28.5 h, 10 µM (%)

INSERT INTO assay_data (compound, parameter_measured, reading_unit, numeric_value) VALUES
  ('Cc1nc(-c2cc(Cl)c(Cl)s2)cs1 [CBK009801]', 'viability at 28.5 h, 10 µM', '%', 84.2),
  ('O=C(CSc1ccccc1)Nc1cc(Cl)ccc1O [CBK265837]', 'viability at 28.5 h, 10 µM', '%', 109),
  ('CC(C)[C@H](CO)Nc1nccnc1-c1ccccc1F [CBK037987]', 'viability at 28.5 h, 10 µM', '%', 106),
  ('Cn1c2ccccc2c2cc(/C=C(/NC(=O)c3ccccc3)C(=O)Nc3cccc(O)c3)ccc21 [CBK261449]', 'viability at 28.5 h, 10 µM', '%', 111),
  ('CC(=O)Nc1nonc1OCCOc1nonc1NC(C)=O [CBK020227]', 'viability at 28.5 h, 10 µM', '%', 113);

* * *

- ASSAY PROCEDURE: in vitro
- SETTINGS: human, hela cells, % viability
PARAMETER MEASURED: viability at 28.5 h, 10 µM (%)

INSERT INTO results (molecule, reading_unit, numeric_value) VALUES
  ('O=C1Nc2ccc(Br)cc2C(=O)N2CCNC[C@H]12 [CBK289583]', '%', 85.1),
  ('COCCCn1c(SCc2csc(-c3ccc(C)cc3)n2)n[nH]c1=O [CBK295657]', '%', 93.3),
  ('CCN(CC)c1cc(N2CCCNCC2)ccc1S(=O)(=O)c1cccc(F)c1 [CBK018509C]', '%', 101),
  ('COc1ccc(OC)c(CN2CCN(CCCc3ccccc3)CC2)c1 [CBK264304]', '%', 100),
  ('Cc1ncc(CN(Cc2ccccn2)Cc2ccccc2Cl)n1C [CBK282128]', '%', 97.6),
  ('Cc1ccc(CNC(=O)c2ccc(-n3ccnc3)c(-n3cccc3)c2)o1 [CBK284812]', '%', 99.2),
  ('Cc1ccc(-c2noc(CN3CCN(Cc4ccccc4)CC3)n2)cc1 [CBK267288]', '%', 91.3),
  ('O=C(O)COc1cccc2nsnc12 [CBK019749]', '%', 95.1),
  ('Cc1ccc(-n2c(SCC(N)=O)nnc2-c2ccccc2O)c(C)c1 [CBK269673]', '%', 89.6),
  ('CC(SCc1ccccc1)C(=O)NCc1ccnc(OCC(F)(F)F)c1 (centres unmarked) [CBK298325]', '%', 111),
  ('NC(=O)C1(N2CCCCC2)CCN(Cc2nc(O)c3ccccc3n2)CC1 [CBK265896]', '%', 103),
  ('COc1ccccc1CN(C(=O)Nc1ccc(S(C)(=O)=O)cc1)C1CC1 [CBK305787]', '%', 90.9),
  ('Cc1cccc(OCC(=O)N2CCN(S(=O)(=O)c3ccc([N+](=O)[O-])cc3)CC2)c1 [CBK264221]', '%', 89.9),
  ('Cc1ccc(S(=O)(=O)Nc2nc3ccc(S(=O)(=O)N4CCOCC4)cc3s2)cc1 [CBK266988]', '%', 88.8),
  ('CN1CCC2(CC1)OCc1cc(-c3cccnc3)ccc1O2 [CBK061020]', '%', 94.6),
  ('CC(C)C(=O)N1CCCC2(CC1)CN(C)Cc1ccccc1O2 (centres unmarked) [CBK285132]', '%', 103),
  ('Cc1ccc2oc(=O)cc(N/N=C(\Cl)C(N)=S)c2c1 [CBK022357]', '%', 85.8),
  ('CCOC(=O)c1cnc2ccc(Br)cc2c1NCc1cccnc1 [CBK265030]', '%', 83.5),
  ('Nc1nnc(Sc2nccnc2N2CCCC2)s1 [CBK093804]', '%', 103),
  ('NC(=O)c1ccc(-c2cncc(N3CCN(CCO)CC3)n2)cc1 [CBK065392]', '%', 96.5);
